Recorded KdWT/Kdmutant by entry
Tested On: T1, biotin labeled antigen peptide (a fragment of the CD20 extracellular domain) (human, UniProt P11836 163-187, limits assumed, biotin labeled (position not given))
T1 construct: domain: a fragment of the CD20 extracellular domain; also called short peptide CD20; CD20 antigen
T1 peptide (looked up): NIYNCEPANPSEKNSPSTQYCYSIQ
Experimental Protocol: Biacore SPR, biotin-CD20 peptide on SA chip; ratio against un-mutated C2B8 (WT)
Lab note: write the figure by itself, no unit.

Request: Annotate the binder C2B8 antibody mutant Rmut2 (H55NR) (antibody, V domains shown) VH: QVQLQQPGAELVKPGASVKMSCKASGYTFTSYNMHWVKQTPGRGLEWIGAIYPGRGDTSYNQKFKGKATLTADKSSSTAYMQLSSLTSEDSAVYYCARSTYYGGDWYFNVWGAGTTVTVSA VL: QIVLSQSPAILSASPGEKVTMTCRASSSVSYIHWFQQKPGSSPKPWIYATSNLASGVPVRFSGSGSGTSYSLTISRVEAEDAATYYCQQWTSNPPTFGGGTKLEIK with its measured KdWT/Kdmutant.
Response: 0.61

Request: Annotate the binder C2B8 antibody mutant Rmut4 (H102YR) (antibody, V domains shown) VH: QVQLQQPGAELVKPGASVKMSCKASGYTFTSYNMHWVKQTPGRGLEWIGAIYPGNGDTSYNQKFKGKATLTADKSSSTAYMQLSSLTSEDSAVYYCARSTYRGGDWYFNVWGAGTTVTVSA VL: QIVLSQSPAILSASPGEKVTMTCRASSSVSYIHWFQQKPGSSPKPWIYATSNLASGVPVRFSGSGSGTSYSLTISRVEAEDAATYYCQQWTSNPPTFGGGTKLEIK with its measured KdWT/Kdmutant.
Response: 1.75

Request: Annotate the binder C2B8 antibody mutant Rmut1 (H55NE) (antibody, V domains shown) VH: QVQLQQPGAELVKPGASVKMSCKASGYTFTSYNMHWVKQTPGRGLEWIGAIYPGEGDTSYNQKFKGKATLTADKSSSTAYMQLSSLTSEDSAVYYCARSTYYGGDWYFNVWGAGTTVTVSA VL: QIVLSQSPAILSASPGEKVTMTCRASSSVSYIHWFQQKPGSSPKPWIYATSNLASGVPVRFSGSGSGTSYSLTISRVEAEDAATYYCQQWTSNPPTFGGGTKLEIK with its measured KdWT/Kdmutant.
Response: 0.54

Request: Annotate the binder C2B8 antibody mutant Rmut3 (H57DE) (antibody, V domains shown) VH: QVQLQQPGAELVKPGASVKMSCKASGYTFTSYNMHWVKQTPGRGLEWIGAIYPGNGETSYNQKFKGKATLTADKSSSTAYMQLSSLTSEDSAVYYCARSTYYGGDWYFNVWGAGTTVTVSA VL: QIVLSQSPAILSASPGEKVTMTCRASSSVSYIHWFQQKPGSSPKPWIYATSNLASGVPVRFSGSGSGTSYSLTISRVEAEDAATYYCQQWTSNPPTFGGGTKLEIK with its measured KdWT/Kdmutant.
Response: 6.08

Request: Annotate the binder C2B8 antibody mutant Rmut5 (H102YS) (antibody, V domains shown) VH: QVQLQQPGAELVKPGASVKMSCKASGYTFTSYNMHWVKQTPGRGLEWIGAIYPGNGDTSYNQKFKGKATLTADKSSSTAYMQLSSLTSEDSAVYYCARSTYSGGDWYFNVWGAGTTVTVSA VL: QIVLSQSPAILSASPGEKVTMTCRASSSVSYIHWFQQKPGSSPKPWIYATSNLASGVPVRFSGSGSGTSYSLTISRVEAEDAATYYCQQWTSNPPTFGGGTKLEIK with its measured KdWT/Kdmutant.
Response: 1.85

Request: Annotate the binder C2B8 antibody mutant Rmut7 (H102YK) (antibody, V domains shown) VH: QVQLQQPGAELVKPGASVKMSCKASGYTFTSYNMHWVKQTPGRGLEWIGAIYPGNGDTSYNQKFKGKATLTADKSSSTAYMQLSSLTSEDSAVYYCARSTYKGGDWYFNVWGAGTTVTVSA VL: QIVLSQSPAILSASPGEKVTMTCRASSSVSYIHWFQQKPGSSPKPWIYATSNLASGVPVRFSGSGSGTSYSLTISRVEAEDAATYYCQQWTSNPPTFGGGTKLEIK with its measured KdWT/Kdmutant.
Response: 3.96

Request: Annotate the binder C2B8 antibody mutant Rmut6 (H102YT) (antibody, V domains shown) VH: QVQLQQPGAELVKPGASVKMSCKASGYTFTSYNMHWVKQTPGRGLEWIGAIYPGNGDTSYNQKFKGKATLTADKSSSTAYMQLSSLTSEDSAVYYCARSTYTGGDWYFNVWGAGTTVTVSA VL: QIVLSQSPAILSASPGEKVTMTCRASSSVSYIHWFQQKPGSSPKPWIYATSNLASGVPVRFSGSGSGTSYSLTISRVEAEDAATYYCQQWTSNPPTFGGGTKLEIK with its measured KdWT/Kdmutant.
Response: 1.84
